# credit: ChEMBL document CHEMBL4715758

protocol_notes: Selectivity index, ratio of IC50 for cytotoxicity against human HEK293 cells assessed as reduction in cell viability to IC50 for antitrypanosomal activity against Trypanosoma brucei brucei Lister 427 blood stream form
Type: toxicity, cell-based
measurement_context: read-out: Ratio IC50
Class boundaries, taken from values of selectivity ratio, are as follows: lower band = under 30, central band = from 30 up to 100, upper band = 100 and over

>>> class_name("O=C(NCCc1csc(-c2ccccc2)n1)c1cccc(C(F)(F)F)c1")
"lower band"
>>> class_name("COc1ccccc1-c1nc(CCNC(=O)N2CCCCC2)cs1")
"upper band"
>>> class_name("O=C(NCCc1csc(-c2cccc(F)c2)n1)N1CCCCC1")
"upper band"
>>> class_name("O=C(NCCc1csc(-c2ccccc2)n1)C1CC2C=CC1O2 (racemic)")
"lower band"
>>> class_name("Cc1ccc(C(=O)NCCc2csc(-c3ccccc3)n2)o1")
"lower band"
>>> class_name("CC(C)NC(=O)NCCc1csc(-c2ccccc2)n1")
"central band"
>>> class_name("O=C(NCCc1csc(-c2ccccc2)n1)OCC1CC1")
"central band"
>>> class_name("Cc1ccc(-c2nc(CCNC(=O)N3CCCCC3)cs2)cc1")
"lower band"
>>> class_name("O=C(NCCc1csc(-c2cccnc2)n1)C1CCCC1")
"lower band"
>>> class_name("O=C(NCCc1csc(-c2ccc(F)cc2)n1)N1CCCCC1")
"upper band"
>>> class_name("COc1ccccc1C(=O)NCCc1csc(-c2ccccc2)n1")
"lower band"
>>> class_name("CC(C)N(C)C(=O)NCCc1csc(-c2ccccc2)n1")
"upper band"
>>> class_name("O=C(NCCc1csc(-c2ccccc2)n1)c1ccon1")
"upper band"
>>> class_name("CC(C)(C)C(=O)NCCc1csc(-c2ccccc2)n1")
"central band"
>>> class_name("O=C(NCCc1csc(-c2ccccc2)n1)c1cscn1")
"central band"
>>> class_name("C#Cc1cccc(C(=O)NCCc2csc(-c3ccccc3)n2)c1")
"lower band"
>>> class_name("O=C(NCCc1csc(-c2ccc(F)cc2F)n1)N1CCCCC1")
"upper band"
>>> class_name("COc1cccc(-c2nc(CCNC(=O)N3CCCCC3)cs2)c1")
"central band"
>>> class_name("O=C(NCCc1csc(-c2ccccc2)n1)OC1CCCC1")
"upper band"
>>> class_name("Cc1ccccc1C(=O)NCCc1csc(-c2ccccc2)n1")
"lower band"
>>> class_name("COc1cccc(C(=O)NCCc2csc(-c3ccccc3)n2)c1")
"lower band"
>>> class_name("Cc1ccoc1C(=O)NCCc1csc(-c2ccccc2)n1")
"upper band"

###

compounds and their reported IC50
Test system: Trypanosoma cruzi
protocol_notes: Antitrypanosomal activity against Trypanosoma cruzi Tulahuen strain trypomastigotes infected in rat H9c2 cells incubated for 72 hrs by DRAQ5 DNA dye based imaging analysis
Format: functional, organism-based
measurement_context: H9c2, 72 h
readout_name: IC50

>>> reading("CC(C)OC(=O)NCCc1csc(-c2ccc(F)cc2F)n1")
"0.13 µM"
>>> reading("Cc1cccc(C(=O)NCCc2csc(-c3ccccc3)n2)c1")
"6.3 µM"
>>> reading("CC(C)N(C)C(=O)NCCc1csc(-c2ccccc2)n1")
"1 µM"
>>> reading("O=C(NCCc1csc(-c2ccccc2)n1)c1ccc[nH]1")
"6.3 µM"
>>> reading("CC(C)(C)C(=O)NCCc1csc(-c2ccccc2)n1")
"6.3 µM"
>>> reading("O=C(NCCc1csc(-c2ccccc2)n1)C1CCCCC1")
"0.32 µM"
>>> reading("O=S(=O)(NCCc1csc(-c2ccccc2)n1)N1CCCC1")
"32 µM"
>>> reading("O=C(NCCc1csc(-c2ccc(F)cc2F)n1)c1cc(F)ccc1F")
"0.13 µM"
>>> reading("O=C(NCCc1csc(-c2ccccc2)n1)N1CCCCCC1")
"0.12 µM"
>>> reading("O=C(NCCc1csc(-c2cccnc2)n1)c1ccccc1")
"40 µM"
>>> reading("O=C(NCCc1csc(-c2ccccc2)n1)c1ccon1")
"2.5 µM"
>>> reading("O=C(NCCc1csc(-c2ccc(F)cc2)n1)N1CCCCC1")
"0.03 µM"

###

protocol_notes: Metabolic stability in human liver microsome assessed as compound degradation measured over 60 mins in absence of cofactor by LC-MS analysis
Assay type: ADME
measurement_context: liver microsomes, read-out: Drug degradation
readout_name: metabolised at 1 h (%)

>>> reading("O=C(NCCc1csc(-c2ccccc2)n1)c1cccc(F)c1")
14

###

System: Trypanosoma brucei brucei
protocol_notes: Antitrypanosomal activity against Trypanosoma brucei brucei Lister 427 strain blood stream forms incubated for 48 hrs by resazurin dye based fluorescence assay
Assay type: functional, organism-based
measurement_context: Lister 427, 48 h
readout_name: log10(IC50) (log10 of the value in nM)

>>> reading("N#Cc1cccc(-c2nc(CCNC(=O)N3CCCCC3)cs2)c1")
2.45
>>> reading("O=C(NCCc1csc(-c2ccccc2)n1)c1ccccn1")
2.48
>>> reading("O=C(NCCc1csc(-c2ccccc2)n1)c1cnccn1")
3.61
>>> reading("O=C(NCCc1csc(-c2ccccc2)n1)c1cscn1")
3.08
>>> reading("COc1cccc(C(=O)NCCc2csc(-c3ccccc3)n2)c1")
3.28
>>> reading("CC(C)NC(=O)NCCc1csc(-c2ccccc2)n1")
2.95

###

System: Trypanosoma cruzi
protocol_notes: Antitrypanosomal activity against Trypanosoma cruzi Tulahuen C4 strain amastigotes infected in rat L6 cells measured after 96 hrs by inverted microscopy analysis
Format: functional, organism-based
measurement_context: Tulahuen C4, L6, 96 h
compounds and their reported IC50
readout_name: IC50 (nM)

>>> reading("O=C(NCCc1csc(-c2ccccc2)n1)c1ccccn1")
900
>>> reading("CC(C)(C)C(=O)NCCc1csc(-c2cccc(F)c2)n1")
2300
>>> reading("O=C(NCCc1csc(-c2ccccc2)n1)c1cccc(F)c1")
200
>>> reading("O=C(NCCc1csc(-c2ccccc2)n1)N1CCCC1")
96
>>> reading("O=C(NCCc1csc(-c2ccccc2)n1)c1ccccc1F")
1100

###

compounds and their reported IC50
Tested on: Trypanosoma brucei rhodesiense
protocol_notes: Antitrypanosomal activity against Trypanosoma brucei rhodesiense STIB900 trypomastigotes incubated for 72 hrs by resazurin dye based fluorescence assay
Format: functional, organism-based
measurement_context: STIB900, 72 h
readout_name: IC50 (nM)

>>> reading("O=C(NCCc1csc(-c2ccccc2)n1)c1ccccn1")
220
>>> reading("O=C(NCCc1csc(-c2ccccc2)n1)c1ccccc1F")
420
>>> reading("CC(C)(C)C(=O)NCCc1csc(-c2cccc(F)c2)n1")
1500
>>> reading("O=C(NCCc1csc(-c2ccccc2)n1)N1CCCC1")
46

###

protocol_notes: Selectivity index, ratio of IC50 for cytotoxicity against human HEK293 cells assessed as reduction in cell viability to IC50 for antitrypanosomal activity against Trypanosoma brucei brucei Lister 427 blood stream form
Format: toxicity, cell-based
measurement_context: read-out: Ratio IC50
Class boundaries, taken from values of selectivity ratio, are as follows: bucket 1 = under 20, bucket 2 = from 20 up to 200, bucket 3 = 200 and over

>>> class_name("O=C(NCCc1csc(-c2ccccc2)n1)C1CCOCC1")
"bucket 1"
>>> class_name("O=C(NCCc1csc(-c2ccccc2)n1)n1cccc1")
"bucket 2"
>>> class_name("CC(C)N(C(=O)NCCc1csc(-c2ccccc2)n1)C(C)C")
"bucket 1"
>>> class_name("Cc1ccccc1-c1nc(CCNC(=O)N2CCCCC2)cs1")
"bucket 3"
>>> class_name("CCN(CC)C(=O)NCCc1csc(-c2ccccc2)n1")
"bucket 3"
>>> class_name("CS(=O)(=O)c1cccc(C(=O)NCCc2csc(-c3ccccc3)n2)c1")
"bucket 1"
>>> class_name("CC(C)C(=O)NCCc1csc(-c2ccccc2)n1")
"bucket 1"
>>> class_name("N#Cc1cccc(-c2nc(CCNC(=O)N3CCCCC3)cs2)c1")
"bucket 2"
>>> class_name("O=C(NCCc1csc(-c2ccncc2)n1)C1CCCC1")
"bucket 1"
>>> class_name("O=C(NCCc1csc(-c2ccccc2F)n1)N1CCCCC1")
"bucket 3"
>>> class_name("N#Cc1ccccc1-c1nc(CCNC(=O)N2CCCCC2)cs1")
"bucket 2"
>>> class_name("O=C(NCCc1csc(-c2ccccc2)n1)c1ccoc1")
"bucket 3"

###

protocol_notes: Tmax in Balb/c mouse at 50 mg/kg, po administered via gavage
Format: ADME, organism-based
measurement_context: in vivo
readout_name: Tmax (min)

>>> reading("O=C(NCCc1csc(-c2ccc(F)cc2F)n1)N1CCCCC1")
15

###

protocol_notes: AUClast (0 to t) in Balb/c mouse at 50 mg/kg, po administered via gavage
Format: ADME, organism-based
Set-up: time 0 - last, route oral, dose 50 mg/kg
measurement_context: in vivo
readout_name: AUC(0-t) (ng·h/mL)

>>> reading("O=C(NCCc1csc(-c2ccc(F)cc2F)n1)N1CCCCC1")
127

###

protocol_notes: Cmax in Balb/c mouse at 50 mg/kg, po administered via gavage
Type: ADME, organism-based
Parameters: route oral, dose 50 mg/kg
measurement_context: in vivo
readout_name: Cmax (µg/mL)

>>> reading("O=C(NCCc1csc(-c2ccc(F)cc2F)n1)N1CCCCC1")
0.212
